# Tested on: NCI-H292
# assay.overview: Antiinflammatory activity against PMA-stimulated human NCI-H292 cells assessed as reduction in MUC5AC secretion at 1 uM incubated for 24 hrs by ELISA
# Assay type: functional, cell-based
The source made the active and inactive calls. The rule behind the calls is not given here.
property.label: Activity

O=C(/C=C/c1ccc(O)cc1)c1ccc2c(c1O)[C@H](C(=O)c1ccc(O)cc1O)[C@@H](c1ccc(O)cc1)O2
Active
O=C(/C=C/c1ccc(O)c(-c2cc(C(=O)/C=C/c3ccc(O)cc3)c(O)cc2O)c1)c1ccc(O)cc1O
Active

---

# Tested on: NCI-H292
# assay.overview: Antiinflammatory activity against PMA-stimulated human NCI-H292 cells assessed as reduction in MUC5AC secretion at 1 uM incubated for 24 hrs by ELISA
# Type: functional, cell-based
Activity calls are given as the source filed them. The calls are words filed in the database; no cut-off is given here.
property.label: Activity

O=C(/C=C/c1ccc(Oc2c(O)ccc(C(=O)/C=C/c3ccc(O)cc3)c2O)cc1)c1ccc(O)cc1
Active
O=C1C[C@@H](c2ccc(O)cc2)Oc2cc(Oc3ccc([C@@H]4[C@@H](C(=O)c5ccc(O)cc5O)[C@H](C(=O)c5ccc(O)cc5O)[C@H]4c4ccc(O)cc4)cc3O)ccc21
Active
